# Tested on: FLK-1 receptor
# Assay method text: FLK-1 Assay (cellular/catalytic ELISA, VEGF-stimulated phosphotyrosine)
# Format: cell-based
# Parameters: concentration or dose not given beside the values
Answer each item with its documented Flk Kinase % Inhibition (P.110).

// known answers, use as guide
INSERT INTO results (molecule, assay_readout, meas_value) VALUES
  ('Cc1c(Br)ccc2c1C(=Cc1ccc(Cl)cc1)C(=O)N2', 'Flk Kinase % Inhibition (P.110)', '−0.9%'),
  ('CCc1ccc(C=C2C(=O)Nc3ccc(I)cc32)cc1', 'Flk Kinase % Inhibition (P.110)', '8.0%'),
  ('Cc1c(Br)cc(Br)c2c1C(=Cc1cccc(C#N)c1)C(=O)N2', 'Flk Kinase % Inhibition (P.110)', '2.9%');

For each of the items listed, what is its Flk Kinase % Inhibition (P.110)?
1. CCOc1cccc(C=C2C(=O)Nc3ccc(Br)c(C)c32)c1O
2. Cc1c(Br)cc(Br)c2c1C(=Cc1ncc[nH]1)C(=O)N2
3. Cc1cc2occ(C=C3C(=O)Nc4c(Br)cc(Br)c(C)c43)c(=O)c2cc1C
4. COc1ccc(C=C2C(=O)Nc3c(Br)cc(Br)c(C)c32)cc1C(C)(C)C
5. CCCCN(CCCC)c1ccc(C=C2C(=O)Nc3c(Br)cc(Br)c(C)c32)cc1
6. O=C1Nc2ccc(S(=O)(=O)Nc3ccc(C(F)(F)F)cc3)cc2C1=Cc1ccccc1C(F)(F)F

Result:
−3.9%
−8.8%
20.0%
12.8%
−14.1%
17.7%

====

# Assayed system: EGFR (Homo sapiens)
# Construct: endogenous in cells; host or cells: A431 cells (lysate, captured with SUMO1 anti-EGFR antibody)
# Assay method text: Biochemical EGFR Assay
# Parameters: concentration or dose not given beside the values
# Run conditions: protocol P.167
Assay readout: Biochem EGFR % Inhibition (P.167) (%)
Answers are plain numbers, in %.

For each of the items listed, what is its Biochem EGFR % Inhibition (P.167)?
1. Cc1c(Br)cc(Br)c2c1C(=Cc1ccsc1)C(=O)N2
2. O=C1Nc2ccc(S(=O)(=O)N3CCOCC3)cc2C1=Cc1ccc(CO)o1
3. O=C1Nc2ccc(CCCl)cc2C1=Cc1ccccc1F

Result:
["−4.4", "−38.5", "−9.2"]

For each of the items listed, what is its Biochem EGFR % Inhibition (P.167)?
1. Cc1c(Br)cc(Br)c2c1C(=Cc1ccc(C(C)C)cc1)C(=O)N2
2. Cc1[nH]c2ccccc2c1C=C1C(=O)Nc2c(Br)cc(Br)c(C)c21

Result:
1: 11.4; 2: −24.3

====

Answer each item with its documented Biochem EGFR % Inhibition (P.167).
# Assayed system: EGFR (Homo sapiens, UniProt P00533)
# Construct: endogenous in cells; host or cells: A431 cells (lysate, captured with SUMO1 anti-EGFR antibody)
# Sequence (P00533 25-1210): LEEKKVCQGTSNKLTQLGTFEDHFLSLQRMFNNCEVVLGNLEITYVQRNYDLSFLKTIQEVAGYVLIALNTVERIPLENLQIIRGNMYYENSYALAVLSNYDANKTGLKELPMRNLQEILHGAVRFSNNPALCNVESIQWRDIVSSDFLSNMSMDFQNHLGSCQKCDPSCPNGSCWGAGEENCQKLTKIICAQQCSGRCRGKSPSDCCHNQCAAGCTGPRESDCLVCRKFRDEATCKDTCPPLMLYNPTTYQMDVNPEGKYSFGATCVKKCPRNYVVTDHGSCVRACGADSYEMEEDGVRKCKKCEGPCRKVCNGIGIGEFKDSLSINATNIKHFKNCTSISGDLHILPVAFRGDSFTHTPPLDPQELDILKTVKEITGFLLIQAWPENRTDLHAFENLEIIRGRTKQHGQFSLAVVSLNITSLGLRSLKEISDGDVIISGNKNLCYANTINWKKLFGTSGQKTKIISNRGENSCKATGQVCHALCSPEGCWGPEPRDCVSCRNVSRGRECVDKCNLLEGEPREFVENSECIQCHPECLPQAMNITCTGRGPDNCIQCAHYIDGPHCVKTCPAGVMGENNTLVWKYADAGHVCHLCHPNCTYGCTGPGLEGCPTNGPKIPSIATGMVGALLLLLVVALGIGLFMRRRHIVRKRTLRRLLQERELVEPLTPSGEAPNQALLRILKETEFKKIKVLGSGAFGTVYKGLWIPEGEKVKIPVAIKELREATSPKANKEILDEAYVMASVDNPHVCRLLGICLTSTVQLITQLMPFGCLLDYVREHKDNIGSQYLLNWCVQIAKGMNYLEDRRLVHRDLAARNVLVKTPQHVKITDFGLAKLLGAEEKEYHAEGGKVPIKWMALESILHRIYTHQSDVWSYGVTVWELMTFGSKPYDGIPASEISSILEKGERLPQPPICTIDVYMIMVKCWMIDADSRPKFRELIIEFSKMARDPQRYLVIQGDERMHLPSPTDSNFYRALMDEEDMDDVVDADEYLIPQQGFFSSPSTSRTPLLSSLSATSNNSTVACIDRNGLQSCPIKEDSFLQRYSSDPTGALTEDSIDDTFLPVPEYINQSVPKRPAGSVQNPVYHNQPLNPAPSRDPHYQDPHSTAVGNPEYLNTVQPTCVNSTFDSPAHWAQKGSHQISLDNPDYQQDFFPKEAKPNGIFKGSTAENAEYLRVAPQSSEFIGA
# Assay method text: Biochemical EGFR Assay
# Parameters: concentration or dose not given beside the values
# Run conditions: protocol P.167
Numbers only, in %.

INSERT INTO results (compound, result_unit, meas_value) VALUES
  ('CC(C)c1ccc(C=C2C(=O)Nc3c(Br)cc(Br)cc32)cc1', '%', '−0.9'),
  ('COc1ccc(Oc2cccc(C=C3C(=O)Nc4ccc(S(=O)(=O)Nc5ccc(C(F)(F)F)cc5)cc43)c2)cc1', '%', '−17.4'),
  ('Cc1ccc(C)c(C=C2C(=O)Nc3ccc(CCCl)cc32)c1', '%', '−25.0');

For each of the items listed, what is its Biochem EGFR % Inhibition (P.167)?
1. CC(C)(C)c1ccc(Oc2cccc(C=C3C(=O)Nc4ccc(CCCl)cc43)c2)cc1
2. O=C1Nc2ccc(S(=O)(=O)Nc3ccc(C(F)(F)F)cc3)cc2C1=Cc1cccc(Oc2ccc(Cl)c(Cl)c2)c1

Result:
1. 17.2
2. 82.6

For each of the items listed, what is its Biochem EGFR % Inhibition (P.167)?
1. O=C1Nc2ccc(CCCl)cc2C1=Cc1ccc(Cl)c(Cl)c1
2. COC1CCCN1C=C1C(=O)Nc2c(Br)cc(Br)c(C)c21 (stereo not shown)

Result:
[23.6, "−21.0"]

For each of the items listed, what is its Biochem EGFR % Inhibition (P.167)?
1. O=C1Nc2ccc(I)cc2C1=Cc1cccc(F)c1F
2. Cc1ccc(C)c(C=C2C(=O)Nc3c(Br)cc(Br)cc32)c1
3. O=C1Nc2c(Br)cc(Br)cc2C1=Cc1cccc(F)c1F
4. O=C1Nc2ccc(I)cc2C1=Cc1ccsc1
5. COc1ccc(C=C2C(=O)Nc3c(Br)cc(Br)cc32)cc1O
6. O=C1Nc2ccc(CCCl)cc2C1=Cc1ccc(Oc2ccccc2)cc1
7. CNS(=O)(=O)c1ccc2c(c1)C(=Cc1cc(Br)cs1)C(=O)N2

Result:
[17.4, 25.3, 26.4, 30.7, "−17.5", 23.6, 9.9]

For each of the items listed, what is its Biochem EGFR % Inhibition (P.167)?
1. Cc1ccc(C=C2C(=O)Nc3ccc(S(=O)(=O)Nc4ccc(C(F)(F)F)cc4)cc32)c(C)c1
2. O=C1Nc2ccc(CCCl)cc2C1=Cc1cccc(F)c1

Result:
1. −4.5
2. −74.8
